I'd be grateful if you could share measured inhibition at 50 ppm for these entries.
Tested on: Rhizopus nigricans
Experiment: Inhibition of hypha growth on malt extract agar, Rhizopus nigricans
Conditions: Rhizopus stolonifer, read-out: Controlling effect (growth inhibition rate) RHS
One number for each entry, in %.

compound_structure_string=COc1nsc(S(=O)(=O)c2ccc(Cl)cc2)c1C#N test_result=100

# inhibition at 50 ppm lookup, item `COc1nsc(S(C)(=O)=O)c1C#N` 100

---

I'd be grateful if you could share measured inhibition at 50 ppm for these entries.
Test system: Aspergillus niger
Test: Inhibition of hypha growth on malt extract agar, Aspergillus niger
Conditions: read-out: Controlling effect (growth inhibition rate) ASN

// below: answered compounds
compound_structure_string=Cc1ccc(S(=O)(=O)c2snc(O)c2C#N)cc1 test_result="55 to 84%"
compound_structure_string=C=CCOc1nsc(S(=O)(=O)c2ccc(C)cc2)c1C#N test_result="85 to 99%"

Read the next record carefully.
# inhibition at 50 ppm lookup, item `CCCOc1nsc(S(C)(=O)=O)c1C#N` 85 to 99%

Where do the numbers come from? From patent US5484934A.
